- Study system: Tau40 P301L protein (human)
- Protocol details: cell-based or functional assay
Square brackets hold non-standard residues; d marks the D form. Ends that are not written are not given here.
Property measured: IC50, Tau40 assay (ThT) (µM)
Just the number please, in µM, no unit attached.

1. [dL][dE][dF][dE][dL][dK][dY][dW] [lefelkyw]	19.7
2. [dW][dK][dV][dH][dI][dQ][dH][dW] [wkvhiqhw]	3.29
3. [dW][dR][dT][dR][dI][dH][dW] [wrtrihw]	3.23
4. [dW][dR][dL][dM][dI][dH][dW] [wrlmihw]	3.23
5. [dK][dI][dR][dI][dH][dY][dH] [kirihyh]	4.92

Switching to the query record.
# get_value(readout='IC50, Tau40 assay (ThT)', item= [dW][dR][dA][dK][dA][dR][dW] [wrakarw] )
12.7
